assay: Rat liver microsome clearance; assay type: in vitro ADME; conditions: first value of RLM/HLM cell
READOUT_LABEL: RLM CL (rat liver microsome hepatic clearance) (mL/min/kg)
The response must be a number in mL/min/kg with no trailing unit.

Qu. # get_value(readout='RLM CL (rat liver microsome hepatic clearance)', item= Cc1nc2ncnn2c(O)c1Cc1ccc(C(C)(C)C)cc1 )
Ans. 51

Qu. Would you mind telling me what RLM CL (rat liver microsome hepatic clearance) value was observed for Cc1nc2nc(C)c(Cc3ccc(C(C)(C)C)cc3)c(O)n2n1 ?
Ans. 50

Qu. Form field: reported RLM CL (rat liver microsome hepatic clearance) of COCc1nc2ncnn2c(O)c1Cc1ccc(C(C)(C)C)cc1
Ans. 48

Qu. I am curious: what RLM CL (rat liver microsome hepatic clearance) value has been reported for CCc1nc2nc(COC)nn2c(O)c1Cc1ccc(C(C)(C)C)cc1 ?
Ans. 36

Qu. What RLM CL (rat liver microsome hepatic clearance) value was documented for this molecule, CCc1nc2nc(N)nn2c(O)c1Cc1ccc(C(C)(C)C)cc1 ?
Ans. 39

Qu. RLM CL (rat liver microsome hepatic clearance) for Cc1nc2nc(C(F)(F)F)nn2c(O)c1Cc1ccc(C(C)(C)C)cc1 ?
Ans. 54

Qu. For Cc1nc2nc(C(F)(F)F)nn2c(O)c1Cc1ccc(C2(F)CCOCC2)cc1 , what is its reported RLM CL (rat liver microsome hepatic clearance)?
Ans. 43

Qu. Item CC(C)(C)c1ccc(Cc2c(C3CCC3)nc3ncnn3c2O)cc1 has what recorded RLM CL (rat liver microsome hepatic clearance)?
Ans. 37

Qu. I am curious: what RLM CL (rat liver microsome hepatic clearance) value has been reported for CCc1nc2ncnn2c(O)c1Cc1ccc(C(C)(C)C)cc1 ?
Ans. 51

====

Please go through the items and note down their LipE.
Molecular target: CCR9 receptor (Homo sapiens, UniProt P51686)
Sequence (P51686 whole entry): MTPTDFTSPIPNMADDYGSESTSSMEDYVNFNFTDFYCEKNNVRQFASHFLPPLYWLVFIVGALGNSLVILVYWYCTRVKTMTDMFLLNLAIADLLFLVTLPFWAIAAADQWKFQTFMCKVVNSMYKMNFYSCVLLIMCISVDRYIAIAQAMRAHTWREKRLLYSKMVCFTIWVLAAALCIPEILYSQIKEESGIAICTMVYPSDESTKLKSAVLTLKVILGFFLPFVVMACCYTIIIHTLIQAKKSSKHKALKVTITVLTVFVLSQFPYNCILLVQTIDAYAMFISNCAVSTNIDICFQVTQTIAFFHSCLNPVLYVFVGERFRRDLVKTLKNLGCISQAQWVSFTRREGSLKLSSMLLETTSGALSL
Experiment: Calcium mobilization (Ca FLIPR) assay, antagonist mode vs TECK
Assay type: cell-based
Settings: LipE = pIC50-clogD
Protocol: Calcium Mobilization Assay: Cells expressing CCR9 receptor (MultiSpan, Hayward, Calif.) were seeded in 384-well plates. Ca^2+ assays were conducted after overnight culture in the plates according to the manufacturer's protocol using Screen Quest™ Fluo-8 no wash kit (AAT Bioquest, Sunnyvale, Calif.). […] Calcium flux was monitored for 90 seconds with compound application after 10 seconds. […]

Qu. Any idea what its LipE is? The compound is CC(C)c1nc2ncnn2c(O)c1Cc1ccc(C(C)(C)C)cc1
Ans. 4.0

Qu. Would you mind telling me what LipE value was observed for Cc1nc2nc(C(F)(F)F)nn2c(O)c1Cc1ccc(C(C)(C)C)cc1 ?
Ans. 2.6

Qu. Endpoint output: LipE of COCc1nc2nc(O)c(Cc3ccc(C(C)(C)C)cc3)c(COC)n2n1 . Value?
Ans. 5.9

Qu. Given the compound CCCc1nc2ncnn2c(O)c1Cc1ccc(C(C)(C)C)cc1 , what is its reported LipE?
Ans. 5.0

Qu. Which measured LipE value corresponds to CCc1nc2ncnn2c(O)c1Cc1ccc(C(C)(C)C)cc1 ?
Ans. 4.8

Qu. Would you mind telling me what LipE value was observed for CCc1nc2ncnn2c(O)c1Cc1ccc(C(C)(C)COC)cc1 ?
Ans. 5.9

Qu. I would be grateful if you could share the reported LipE for CCc1nc2nc(N)nn2c(O)c1Cc1ccc(C(C)(C)C)cc1 .
Ans. 5.9

Qu. Look up LipE for this compound: CCc1nc2nc(CO)nn2c(O)c1Cc1ccc(C(C)(C)C)cc1
Ans. 5.5

Qu. LipE lookup needed for Cc1nc2nc(C)c(Cc3ccc(C(C)(C)C)cc3)c(O)n2n1 , thanks.
Ans. 3.9
